Target: T1, Cyk3, Q07533
T1 sequence (Q07533 1-83, looked up): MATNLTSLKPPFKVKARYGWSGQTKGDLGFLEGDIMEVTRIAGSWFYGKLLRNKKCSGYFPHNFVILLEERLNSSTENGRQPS
Assay: SPOT array
Details: median of control spots 1451
SPOT intensity by entry:
REPORTED_PROPERTY: SPOT intensity

BINDER	REPORTED_PROPERTY	NUMERIC_VALUE
TKPTPPPKPSHLKPK	SPOT intensity	1
GRLRPKRIAPWHLIQ	SPOT intensity	1
NIKVLLNPKLGKPVK	SPOT intensity	5
PSRRDSLSIPRAVDA	SPOT intensity	1
KDKSRPPRPPPKPLH	SPOT intensity	0
FFRRSELYLPNSSKA	SPOT intensity	0
PKMLPIPSKPTLFDL	SPOT intensity	0
HKVLRPFLLRRLKKD	SPOT intensity	3
EREKALPPIPFTTTL	SPOT intensity	0
LFMKGTPEFPKSGFS	SPOT intensity	0
QPQRTAPKPPISAPR	SPOT intensity	0
QPWTDQFEKLEKEVS	SPOT intensity	0
RVTRKRPREPKSTND	SPOT intensity	4
NPLPKEPRLPKRKVA	SPOT intensity	4
NMLSRPRLAKLPSIR	SPOT intensity	1
LPMNIQPDLPPRKIM	SPOT intensity	0
NTMKKRPAPPSLPSL	SPOT intensity	1
SRQAIPPPVPNRPGG	SPOT intensity	1
KRKRRLPVSEDTNTK	SPOT intensity	8
TTAPALPSLPPPPLL	SPOT intensity	0
SSAAPPPPPRRATPE	SPOT intensity	0
NRLRKRLNLPSEISI	SPOT intensity	8
AAHKTKPSIPPKKVE	SPOT intensity	0
TEVPIPRRPPPPQAA	SPOT intensity	0
IRMPSNPALPKKLLN	SPOT intensity	0
SPLGAPPPPPHKDHL	SPOT intensity	0
QRKSLRRPTLSKPAV	SPOT intensity	4
LLIRWLILMPLVGSR	SPOT intensity	4
GDHPKGPPPPPPPDE	SPOT intensity	0
SSSSSPPPLPTRRDH	SPOT intensity	1
